Assay: AUC (0 to infinity) in wild-type mouse at 1 mg/kg, iv
Format: ADME, organism-based
Parameters: time infinity, dose 1 mg/kg, route intravenous
Details: plasma
readout: AUC(0-inf) (ng·h/mL)
Lab book: enter the figure in ng·h/mL, no units written.

**Query** Tell me the measured AUC(0-inf) of "CC[C@@H](C(=O)[C@@H](C)[C@@H](O)[C@H](C)[C@@H]1O[C@@H]([C@@H](CC)C(=O)O)CC[C@@H]1C)[C@H]1O[C@]2(C=C[C@@H](O)[C@]3(CC[C@@](C)([C@H]4CC[C@](O)(CC)[C@H](C)O4)O3)O2)[C@H](C)C[C@@H]1C" , please.
**Result** 1370

====

Experiment: Cmax in wild-type mouse at 1 mg/kg, po
Assay type: ADME, organism-based
Design: dose 1 mg/kg, route oral
Settings: in vivo
readout: Cmax (ng/mL)
Lab book: enter the figure in ng/mL, no units written.

**Query** Tell me the measured Cmax of "CC[C@@H](C(=O)[C@@H](C)[C@@H](O)[C@H](C)[C@@H]1O[C@@H]([C@@H](CC)C(=O)O)CC[C@@H]1C)[C@H]1O[C@]2(C=C[C@@H](O)[C@]3(CC[C@@](C)([C@H]4CC[C@](O)(CC)[C@H](C)O4)O3)O2)[C@H](C)C[C@@H]1C" , please.
**Result** 13.2

====

Assay: AUC (0 to 6 hrs) in wild-type mouse at 1 mg/kg, po
Assay type: ADME, organism-based
Set-up: time < 6 hr, dose 1 mg/kg, route oral
Details: plasma
readout: AUC(0-t) at 6 h (ng·h/mL)
Lab book: enter the figure in ng·h/mL, no units written.

**Query** Tell me the measured AUC(0-t) at 6 h of "CC[C@@H](C(=O)[C@@H](C)[C@@H](O)[C@H](C)[C@@H]1O[C@@H]([C@@H](CC)C(=O)O)CC[C@@H]1C)[C@H]1O[C@]2(C=C[C@@H](O)[C@]3(CC[C@@](C)([C@H]4CC[C@](O)(CC)[C@H](C)O4)O3)O2)[C@H](C)C[C@@H]1C" , please.
**Result** 62.1

====

Experiment: Drug uptake in mdr1a/1b double knockout mouse plasma at 1 mg/kg, iv after 180 mins by LC-MS/MS analysis
Type: ADME, organism-based
Set-up: dose 1 mg/kg, route intravenous
Settings: read-out: Drug uptake
readout: concentration at 3 h (ng/mL)
Lab book: enter the figure in ng/mL, no units written.

**Query** Tell me the measured concentration at 3 h of CC[C@@H](C(=O)[C@@H](C)[C@@H](O)[C@H](C)[C@@H]1O[C@@H]([C@@H](CC)C(=O)O)CC[C@@H]1C)[C@H]1O[C@]2(C=C[C@@H](O)[C@]3(CC[C@@](C)([C@H]4CC[C@](O)(CC)[C@H](C)O4)O3)O2)[C@H](C)C[C@@H]1C [SALINOMYCIN] , please.
**Result** 270

====

Experiment: Drug uptake in mdr1a/1b double knockout mouse small intestinal content at 1 mg/kg, iv after 180 mins by LC-MS/MS analysis
Assay type: ADME, organism-based
Parameters: dose 1 mg/kg, route intravenous
Conditions: read-out: Drug uptake
readout: concentration at 3 h

**Query** Tell me the measured concentration at 3 h of "CC[C@@H](C(=O)[C@@H](C)[C@@H](O)[C@H](C)[C@@H]1O[C@@H]([C@@H](CC)C(=O)O)CC[C@@H]1C)[C@H]1O[C@]2(C=C[C@@H](O)[C@]3(CC[C@@](C)([C@H]4CC[C@](O)(CC)[C@H](C)O4)O3)O2)[C@H](C)C[C@@H]1C" , please.
**Result** 290 ng/g

====

Assay: AUC (0 to 6 hrs) in wild-type mouse at 1 mg/kg, iv
Format: ADME, organism-based
Parameters: time < 6 hr, dose 1 mg/kg, route intravenous
Settings: plasma
readout: AUC(0-t) at 6 h (ng·h/mL)
Lab book: enter the figure in ng·h/mL, no units written.

**Query** Tell me the measured AUC(0-t) at 6 h of "CC[C@@H](C(=O)[C@@H](C)[C@@H](O)[C@H](C)[C@@H]1O[C@@H]([C@@H](CC)C(=O)O)CC[C@@H]1C)[C@H]1O[C@]2(C=C[C@@H](O)[C@]3(CC[C@@](C)([C@H]4CC[C@](O)(CC)[C@H](C)O4)O3)O2)[C@H](C)C[C@@H]1C" , please.
**Result** 1310

====

Assay: Tmax in mdr1a/1b double knockout mouse at 1 mg/kg, po
Assay type: ADME, organism-based
Set-up: dose 1 mg/kg, route oral
Conditions: in vivo
readout: Tmax (h)
Lab book: enter the figure in h, no units written.

**Query** Tell me the measured Tmax of "CC[C@@H](C(=O)[C@@H](C)[C@@H](O)[C@H](C)[C@@H]1O[C@@H]([C@@H](CC)C(=O)O)CC[C@@H]1C)[C@H]1O[C@]2(C=C[C@@H](O)[C@]3(CC[C@@](C)([C@H]4CC[C@](O)(CC)[C@H](C)O4)O3)O2)[C@H](C)C[C@@H]1C" , please.
**Result** 2

====

Assay: Tmax in wild-type mouse at 1 mg/kg, po
Type: ADME, organism-based
Design: dose 1 mg/kg, route oral
Settings: in vivo
readout: Tmax (h)
Lab book: enter the figure in h, no units written.

**Query** Tell me the measured Tmax of CC[C@@H](C(=O)[C@@H](C)[C@@H](O)[C@H](C)[C@@H]1O[C@@H]([C@@H](CC)C(=O)O)CC[C@@H]1C)[C@H]1O[C@]2(C=C[C@@H](O)[C@]3(CC[C@@](C)([C@H]4CC[C@](O)(CC)[C@H](C)O4)O3)O2)[C@H](C)C[C@@H]1C [SALINOMYCIN] , please.
**Result** 2

====

Test: Plasma clearance in wild-type mouse at 1 mg/kg, iv
Type: ADME, organism-based
Design: dose 1 mg/kg, route intravenous
readout: clearance (mL/min/kg)
Lab book: enter the figure in mL/min/kg, no units written.

**Query** Tell me the measured clearance of "CC[C@@H](C(=O)[C@@H](C)[C@@H](O)[C@H](C)[C@@H]1O[C@@H]([C@@H](CC)C(=O)O)CC[C@@H]1C)[C@H]1O[C@]2(C=C[C@@H](O)[C@]3(CC[C@@](C)([C@H]4CC[C@](O)(CC)[C@H](C)O4)O3)O2)[C@H](C)C[C@@H]1C" , please.
**Result** 13.7

====

Assay: Cmax in mdr1a/1b double knockout mouse at 1 mg/kg, po
Type: ADME, organism-based
Design: dose 1 mg/kg, route oral
Details: in vivo
readout: Cmax (ng/mL)
Lab book: enter the figure in ng/mL, no units written.

**Query** Tell me the measured Cmax of "CC[C@@H](C(=O)[C@@H](C)[C@@H](O)[C@H](C)[C@@H]1O[C@@H]([C@@H](CC)C(=O)O)CC[C@@H]1C)[C@H]1O[C@]2(C=C[C@@H](O)[C@]3(CC[C@@](C)([C@H]4CC[C@](O)(CC)[C@H](C)O4)O3)O2)[C@H](C)C[C@@H]1C" , please.
**Result** 41
